Assay: Plasma toxicokinetics after single i.v. bolus
Assay type: in vivo, Sprague-Dawley rats
Details: Sprague-Dawley, rat, plasma, intravenous, 1 mg/kg, Concentration of anatabine in rat plasma, Anatabine 1.0 mg/kg, rat plasma, 4 hr, rats of group 6
Measured quantity: concentration at 4 h (µg/mL)
Write down the numeric answer in µg/mL and omit the unit.

Measured concentration at 4 h of C1=CCC(c2cccnc2)NC1 (racemic) [Anatabine, 1,2,3,6-tetrahydro-[2,3′]bipyridinyl] : 0.073

----------
Test: Plasma toxicokinetics after single i.v. bolus
Assay type: in vivo, Sprague-Dawley rats
Details: male, Sprague-Dawley, rat, plasma, intravenous, 0.75 mg/kg, Anatabine 0.75 mg/kg; male; 0.5 hr (2nd 0.5 hr line); read-out: Avg. Conc. rat plasma
Measured quantity: concentration at 0.5 h (ng/mL)
Write down the numeric answer in ng/mL and omit the unit.

Measured concentration at 0.5 h of C1=CCC(c2cccnc2)NC1 (racemic) [Anatabine, 1,2,3,6-tetrahydro-[2,3′]bipyridinyl] : 302
